- TEST_SUMMARY: folding enthalpy; higher = less favourable; fluorescence melt of hairpins on a sequencing array, two-state fit
- ASSAY_CONTEXT: sodium 0.088 M
Kind request: treat -30 kcal/mol as inclusive, so folding enthalpy at -30 kcal/mol or higher is Y, anything lower is N.

These recorded examples may help you get a feel for the data.
{"ITEM_SEQUENCE": "GGCTGTCCGAAAGGAGCC (((..(((....))))))", "ASSIGNED_CLASS": "Y"}
{"ITEM_SEQUENCE": "GACGGTGAAAACCGTC ((((((....))))))", "ASSIGNED_CLASS": "N"}
{"ITEM_SEQUENCE": "GCAAGGGGAAACTCTTGC (((((.(....).)))))", "ASSIGNED_CLASS": "N"}

Here is the next item to consider.
Determine whether this sequence has folding enthalpy no lower than -30 kcal/mol: GCCAGCGGAAACGCTAGC ((.((((....)))).))
Y
